Assay: Pharmacokinetics of anti-FRα antibodies in wild-type SCID mice
Format: in vivo, mouse
Settings: 5 mg/kg iv bolus, total antibody
reported_endpoint: CL (mL/day/kg)
The reply should be a number in mL/day/kg, with the unit left off.

Examples with their reported CL follow.
| molecule | measured |
| --- | --- |
| AB1370095: anti-FRα fully human IgG1 antibody; VH SEQ ID NO: 45, VL SEQ ID NO: 46 (antibody, V domains shown) VH: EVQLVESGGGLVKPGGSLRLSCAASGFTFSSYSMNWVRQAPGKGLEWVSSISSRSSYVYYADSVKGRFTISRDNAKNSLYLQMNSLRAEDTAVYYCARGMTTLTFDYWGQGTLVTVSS VL: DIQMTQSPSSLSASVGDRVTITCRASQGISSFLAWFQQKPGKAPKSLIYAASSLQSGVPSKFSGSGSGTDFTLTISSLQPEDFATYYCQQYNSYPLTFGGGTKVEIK | 6.6 |
| AB1370026: anti-FRα fully human IgG1 antibody; VH SEQ ID NO: 39, VL SEQ ID NO: 40 (antibody, V domains shown) VH: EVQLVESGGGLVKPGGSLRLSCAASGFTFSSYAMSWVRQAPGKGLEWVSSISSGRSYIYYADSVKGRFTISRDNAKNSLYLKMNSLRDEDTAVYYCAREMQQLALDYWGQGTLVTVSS VL: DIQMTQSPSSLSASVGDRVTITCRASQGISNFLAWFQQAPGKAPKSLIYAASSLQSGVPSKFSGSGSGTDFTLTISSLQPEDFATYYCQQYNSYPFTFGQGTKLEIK | 5.3 |
| AB1370035: anti-FRα fully human IgG1 antibody; VH SEQ ID NO: 41, VL SEQ ID NO: 42 (antibody, V domains shown) VH: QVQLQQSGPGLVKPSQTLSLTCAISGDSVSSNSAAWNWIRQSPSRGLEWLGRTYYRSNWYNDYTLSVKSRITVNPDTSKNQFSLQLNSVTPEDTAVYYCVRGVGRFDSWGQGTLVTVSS VL: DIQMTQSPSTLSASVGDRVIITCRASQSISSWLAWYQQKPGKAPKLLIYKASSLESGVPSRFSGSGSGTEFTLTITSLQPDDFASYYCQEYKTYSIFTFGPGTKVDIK | 5.6 |

# ---- query molecule ----
Input line: Any idea what CL was measured for AB1370083: anti-FRα fully human IgG1 antibody; VH SEQ ID NO: 43, VL SEQ ID NO: 44 (antibody, V domains shown) VH: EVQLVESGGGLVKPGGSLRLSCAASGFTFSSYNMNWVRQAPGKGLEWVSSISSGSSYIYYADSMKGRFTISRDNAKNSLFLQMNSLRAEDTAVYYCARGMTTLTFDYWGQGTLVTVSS VL: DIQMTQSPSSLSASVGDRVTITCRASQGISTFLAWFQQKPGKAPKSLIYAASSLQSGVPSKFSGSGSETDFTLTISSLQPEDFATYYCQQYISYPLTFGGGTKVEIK ?
Output line: 8.6
